// provenance: patent US8729096B2

target: FPR2 (Homo sapiens); construct: expressed in transfected cells; assay: FLIPR Tetra compound-induced calcium activity in CHO-Ga16 cells stably expressing FPR2; type: cell-based; conditions: calcium activity on FLIPR Tetra, efficacy given as a fraction

{"compound": "O=C(CN1C(=O)C2CCCCN2C1=O)Nc1ccc(Br)cc1 (centres unmarked) [Compound 3]", "Efficacy (fraction)": "(1.0)"}
{"compound": "O=C(CN1C(=O)NC2(CCC2)C1=O)Nc1ccc(Br)cc1 [Compound 6]", "Efficacy (fraction)": "(1.00)"}
{"compound": "COCC1(C)NC(=O)N(CC(=O)Nc2ccc(Br)cc2)C1=O (centres unmarked) [Compound 5]", "Efficacy (fraction)": "(1.00)"}

====

Listing: EC50 of selected molecules
target: FPR2 (Homo sapiens, UniProt P25090); test: FLIPR Tetra compound-induced calcium activity in CHO-Ga16 cells stably expressing FPR2; settings: calcium activity on FLIPR Tetra, tested at 0.61 to 10,000 nM
Sequence (P25090 whole entry): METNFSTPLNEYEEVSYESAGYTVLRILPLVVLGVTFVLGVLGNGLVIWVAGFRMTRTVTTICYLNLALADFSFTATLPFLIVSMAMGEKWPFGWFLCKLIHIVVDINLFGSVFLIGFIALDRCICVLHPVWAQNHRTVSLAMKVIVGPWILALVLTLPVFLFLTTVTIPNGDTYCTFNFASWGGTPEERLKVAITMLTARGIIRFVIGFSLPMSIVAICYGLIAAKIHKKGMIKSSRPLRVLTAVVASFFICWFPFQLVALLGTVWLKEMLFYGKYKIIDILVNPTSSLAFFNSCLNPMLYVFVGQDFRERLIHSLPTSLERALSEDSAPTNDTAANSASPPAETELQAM
resultType: EC50

{"molecule": "O=C(CN1C(=O)C2CCCN2C1=O)Nc1ccc(Br)cc1 (centres unmarked)", "observedMeasurement": "343 nM"}
{"molecule": "O=C(CN1C(=O)NC2(CCC2)C1=O)Nc1ccc(Br)cc1", "observedMeasurement": "647 nM"}
{"molecule": "COCC1(C)NC(=O)N(CC(=O)Nc2ccc(Br)cc2)C1=O (centres unmarked)", "observedMeasurement": "306 nM"}
{"molecule": "CCC1(C(C)C)NC(=O)N(CC(=O)Nc2ccc(Br)cc2)C1=O (centres unmarked)", "observedMeasurement": "56 nM"}
{"molecule": "O=C(CN1C(=O)C2CCCCN2C1=O)Nc1ccc(Br)cc1 (centres unmarked)", "observedMeasurement": "243 nM"}
